- system under test: Albumin (Homo sapiens, UniProt P02768)
- Sequence (P02768 whole entry): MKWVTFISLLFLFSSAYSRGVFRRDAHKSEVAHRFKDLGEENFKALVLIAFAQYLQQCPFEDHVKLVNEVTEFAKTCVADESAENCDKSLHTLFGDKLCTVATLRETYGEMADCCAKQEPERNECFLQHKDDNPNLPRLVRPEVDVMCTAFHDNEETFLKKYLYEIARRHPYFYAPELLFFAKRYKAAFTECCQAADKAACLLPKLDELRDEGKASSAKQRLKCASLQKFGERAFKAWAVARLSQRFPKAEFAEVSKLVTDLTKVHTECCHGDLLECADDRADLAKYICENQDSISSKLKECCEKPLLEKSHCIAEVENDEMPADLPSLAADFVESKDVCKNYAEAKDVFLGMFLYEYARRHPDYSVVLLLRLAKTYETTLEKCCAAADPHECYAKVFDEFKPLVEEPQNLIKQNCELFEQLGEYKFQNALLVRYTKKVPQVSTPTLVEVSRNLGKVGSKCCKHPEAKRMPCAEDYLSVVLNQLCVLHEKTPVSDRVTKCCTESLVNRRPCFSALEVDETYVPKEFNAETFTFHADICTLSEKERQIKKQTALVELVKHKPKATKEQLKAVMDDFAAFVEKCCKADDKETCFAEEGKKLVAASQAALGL
- experiment summary: Binding affinity to HSA assessed as free fraction by HPLC analysis
- Type: ADME
- recorded conditions: isolated protein
Label label 1 when Activity >= 7%; otherwise label 0.

mol=Cc1ncsc1-c1ccc(CNC(=O)[C@@H]2C[C@@H](O)CN2C(=O)[C@@H](NC(=O)CCOCCOCCOc2ccc(C(=O)N[C@H]3C(C)(C)[C@H](Oc4ccc(C#N)c(C(F)(F)F)c4)C3(C)C)cc2)C(C)(C)C)cc1 assigned_label="label 1"
mol=Cc1ncsc1-c1ccc(CNC(=O)[C@@H]2C[C@@H](O)CN2C(=O)[C@@H](NC(=O)COCC(F)(F)COc2ccc(-c3ccc(N4C(=S)N(c5ccc(C#N)c(C(F)(F)F)c5)C(=O)C4(C)C)cc3)cc2)C(C)(C)C)cc1 assigned_label="label 0"
mol=Cc1ncsc1-c1ccc(CNC(=O)[C@@H]2C[C@@H](O)CN2C(=O)[C@@H](NC(=O)COCCCOCCCCOc2ccc(N3C(=S)N(c4ccc(C#N)c(C(F)(F)F)c4)C(=O)C3(C)C)cc2)C(C)(C)C)cc1 assigned_label="label 1"
mol=Cc1ncsc1-c1ccc(CNC(=O)[C@@H]2C[C@@H](O)CN2C(=O)[C@@H](NC(=O)CCOCCOCCOCCOc2ccc(N3C(=S)N(c4ccc(C#N)c(C(F)(F)F)c4)C(=O)C3(C)C)cc2)C(C)(C)C)cc1 assigned_label="label 1"

###

- system under test: UniProt P02768
- experiment summary: Binding affinity to HSA assessed as free fraction by HPLC analysis
- Format: ADME
- recorded conditions: isolated protein
value type: Activity (%)

compound="CN1C(=O)N(c2ccc(C#N)c(C(F)(F)F)c2)C(=O)C1(C)c1ccc(O)cc1 (centres undefined)" comparison_operator=> observed=5
compound=Cc1ncsc1-c1ccc(CNC(=O)[C@@H]2C[C@@H](O)CN2C(=O)[C@@H](NC(=O)COCC(F)(F)C(F)(F)C(F)(F)COCCCOc2ccc(N3C(=S)N(c4ccc(C#N)c(C(F)(F)F)c4)C(=O)C3(C)C)cc2)C(C)(C)C)cc1 comparison_operator== observed=7
compound=Cc1ncsc1-c1ccc(CNC(=O)[C@@H]2C[C@@H](O)CN2C(=O)[C@@H](NC(=O)COCCCOCCCCCOc2ccc(N3C(=S)N(c4ccc(C#N)c(C(F)(F)F)c4)C(=O)C3(C)C)cc2)C(C)(C)C)cc1 comparison_operator== observed=9
compound=OC12CC3CC(CC(C3)C1)C2 comparison_operator=> observed=5

###

- experiment summary: Apparent permeability from apical to basolateral side in human Caco2 cells at 10 uM incubated for 120 mins
- Type: ADME, cell-based
- recorded conditions: Caco-2
value type: Papp A→B at 2 h, 10 µM

compound=Cc1ncsc1-c1ccc(CNC(=O)[C@@H]2C[C@@H](O)CN2C(=O)[C@@H](NC(=O)COCCCOCCCCOc2ccc(N3C(=S)N(c4ccc(C#N)c(C(F)(F)F)c4)C(=O)C3(C)C)cc2)C(C)(C)C)cc1 value_type="Papp A→B at 2 h, 10 µM" observed="< 27 ×10⁻⁶ cm/s"
compound="CC1(C)C(=O)N(c2ccc(C#N)c(C(F)(F)F)c2)C(=S)N1c1ccc(OCCOCCOCCOCCOc2cccc3c2C(=O)N(C2CCC(=O)NC2=O)C3=O)cc1 (configuration not stated)" value_type="Papp A→B at 2 h, 10 µM" observed="1.7 ×10⁻⁶ cm/s"
compound=Cc1ncsc1-c1ccc(CNC(=O)[C@@H]2C[C@@H](O)CN2C(=O)[C@@H](NC(=O)COCCCOCC(F)(F)C(F)(F)COc2ccc(N3C(=S)N(c4ccc(C#N)c(C(F)(F)F)c4)C(=O)C3(C)C)cc2)C(C)(C)C)cc1 value_type="Papp A→B at 2 h, 10 µM" observed="0.33 ×10⁻⁶ cm/s"
compound=Cc1ncsc1-c1ccc(CNC(=O)[C@@H]2C[C@@H](O)CN2C(=O)[C@@H](NC(=O)COCCCOCCCCCOc2ccc(N3C(=S)N(c4ccc(C#N)c(C(F)(F)F)c4)C(=O)C3(C)C)cc2)C(C)(C)C)cc1 value_type="Papp A→B at 2 h, 10 µM" observed="0.35 ×10⁻⁶ cm/s"
compound=Cc1ncsc1-c1ccc(CNC(=O)[C@@H]2C[C@@H](O)CN2C(=O)[C@@H](NC(=O)CCOCCOCCOCCOc2ccc(N3C(=S)N(c4ccc(C#N)c(C(F)(F)F)c4)C(=O)C3(C)C)cc2)C(C)(C)C)cc1 value_type="Papp A→B at 2 h, 10 µM" observed="< 0.69 ×10⁻⁶ cm/s"
compound=CC1(C)C(=O)N(c2ccc(C#N)c(C(F)(F)F)c2)C(=S)N1c1ccc(OCCOCCOCCOCCOC23CC4CC(CC(C4)C2)C3)cc1 value_type="Papp A→B at 2 h, 10 µM" observed="0.15 ×10⁻⁶ cm/s"
compound=Cc1ncsc1-c1ccc(CNC(=O)[C@@H]2C[C@@H](O)CN2C(=O)[C@@H](NC(=O)COCC(F)(F)C(F)(F)C(F)(F)COCCCOc2ccc(N3C(=S)N(c4ccc(C#N)c(C(F)(F)F)c4)C(=O)C3(C)C)cc2)C(C)(C)C)cc1 value_type="Papp A→B at 2 h, 10 µM" observed="0.26 ×10⁻⁶ cm/s"
